The reported numbers originate from PubChem BioAssay (EPA / NIEHS).

# Read-out: Tissue Factor, F3 (gene 2152)
# assay.procedure: BSK_LPS_TissueFactor: BioMAP Diversity Plus: LPS Assay for Tissue Factor Biomarker Activity (AID 2283084)
# run.conditions: primary human HUVEC with PBMC; actives raise or lower the signal
The source made the active and inactive calls. The calls were made as follows: active = hit-call score of the fitted dose curve at least 0.9, where 1 is the maximum; inactive = score below 0.9.
Allowed answers: active, inactive

Use these answered entries as a reference point.
{"smi": "CC1=CC(=O)/C(=C(/C)O)C(=O)O1", "cat": "inactive"}
{"smi": "CCCCOC(=O)c1ccc(O)cc1", "cat": "inactive"}
{"smi": "CC(C)(C)c1cc(/C=C2\\SC(N)=NC2=O)cc(C(C)(C)C)c1O", "cat": "active"}
{"smi": "Cc1cc2c(cc1C(F)(F)F)N(C(=O)Nc1ccc(Oc3cccnc3C)nc1)CC2", "cat": "inactive"}
{"smi": "Cc1ncc(CO)c(CO)c1O", "cat": "inactive"}

Per the records of this test, what outcome belongs to CC(C)(O)c1ccc(CNC(=O)c2cccnc2Oc2ccc3nonc3c2)cc1 ?
inactive

---

# Read-out: NAD(P)H dehydrogenase [quinone] 1 (NQO1), NQO1 (gene 1728)
# assay.procedure: LTEA_HepaRG_NQO1: Life Technologies and Expression Analysis (LTEA) Assay for NAD(P)H dehydrogenase [quinone] 1 (NQO1) using HepaRG (AID 2283526)
# run.conditions: mRNA level, 48 h; actives raise or lower the signal
Activity calls are given as the source filed them. The calls were made as follows: active = hit-call score of the fitted dose curve at least 0.9, where 1 is the maximum; inactive = score below 0.9.
Allowed answers: label 1 = active, label 0 = inactive

Use these answered entries as a reference point.
{"smi": "O=C1c2ccccc2C(=O)N1CCc1noc(-c2ccc(CN3CCCCCC3)s2)n1", "cat": "label 0"}
{"smi": "CCCOC(=O)c1cc(O)c(O)c(O)c1", "cat": "label 0"}
{"smi": "CCCCOC(=O)c1ccc(O)cc1", "cat": "label 0"}
{"smi": "CC(C)(C)c1cc(/C=C2\\SC(N)=NC2=O)cc(C(C)(C)C)c1O", "cat": "label 1"}

Per the records of this test, what outcome belongs to C[C@]12CC[C@@H]3c4ccc(O)cc4CC[C@H]3[C@@H]1CCC2=O ?
label 0

Try the molecule CCCCCCCCOc1ccc(C(=O)c2ccccc2)c(O)c1
label 0

Try the molecule Oc1ccc2ccccc2c1
label 0

---

# assay.procedure: APR_HepG2_CellLoss_72hr: Apredica 72-hour HepG2 Assay for Cell Loss (AID 2282915)
# run.conditions: high-content imaging
Activity calls are given as the source filed them. Rule for the calls: active = hit-call score of the fitted dose curve at least 0.9, where 1 is the maximum; inactive = score below 0.9.
Allowed answers: Yes = active, No = inactive

Per the records of this test, what outcome belongs to CC1=CC(=O)/C(=C(/C)O)C(=O)O1 ?
No

Try the compound CCCCOC(=O)c1ccc(O)cc1
No

Try the compound CC/C(=C(/CC)c1ccc(O)cc1)c1ccc(O)cc1
Yes

---

# experimental.target: human Retinoic Acid Receptor beta (RARb), RARB (gene 5915)
# assay.procedure: ATG_RARb_TRANS: Attagene TRANS-FACTORIAL HepG2 Assay for human Retinoic Acid Receptor beta (AID 2283004)
# Experimental: ATG_TRANS is a cell-based, multiplexed-readout assay that uses HepG2, a human liver cell line, with measurements taken at 24 hours after chemical dosing in a 24-well plate.ATG_RARb_TRANS is one of 30 assay component(s) measured or calculated from the ATG_TRANS assay. […] This assay endpoint, ATG_RARb_TRANS, was analyzed in the positive analysis fitting direction relative to DMSO as the negative control and baseline of activity. […]
Results filed as inconclusive are left out. Activity calls are given as the source filed them. Rule for the calls: active = hit-call score of the fitted dose curve at least 0.9, where 1 is the maximum; inconclusive = response in the unintended direction; inactive = score below 0.9.
measurement.label: outcome

# example entries with known answers
{"smi": "CCCCCCCCCCCCO", "measurement.label": "outcome", "measured.result": "inactive"}
{"smi": "O=C(O)c1ccccc1-n1cc(C(=O)O)c(=O)c2cc(Nc3c(F)cc(F)cc3Cl)c(Cl)cc21", "measurement.label": "outcome", "measured.result": "inactive"}
{"smi": "Cc1oc2c(NC(=O)c3c(Cl)cccc3Cl)cccc2c1C(C)(C)O", "measurement.label": "outcome", "measured.result": "inactive"}
{"smi": "CC[C@@H]1C[C@H](N(Cc2cc(C(F)(F)F)cc(C(F)(F)F)c2)C(C)=O)c2cc(C(F)(F)F)ccc2N1C(=O)OC(C)C", "measurement.label": "outcome", "measured.result": "inactive"}
{"smi": "CC1=CC(=O)/C(=C(/C)O)C(=O)O1", "measurement.label": "outcome", "measured.result": "inactive"}

I'd like to know its outcome. The compound in question is CC(C)(C)c1cc(/C=C2\SC(N)=NC2=O)cc(C(C)(C)C)c1O
inactive

Try the compound O=C(Nc1ccc(Cl)cc1)Nc1ccc(Cl)c(Cl)c1
inactive

Try the compound C[C@]12CC[C@@H]3c4ccc(O)cc4CC[C@H]3[C@@H]1CC[C@H]2O
inactive

Try the compound Cc1cc2c(cc1C(F)(F)F)N(C(=O)Nc1ccc(Oc3cccnc3C)nc1)CC2
inactive

Try the compound OCCO
inactive

Try the compound O=C1CCC(C2CCCCC2)CC1
inactive

---

# Read-out: Intercellular Adhesion Molecule 1 (ICAM1), ICAM1 (gene 3383)
# assay.procedure: BSK_3C_ICAM1: BioMAP Diversity Plus: 3C Assay for Intercellular Adhesion Molecule 1 (ICAM1) Biomarker Activity (AID 2283003)
# run.conditions: primary human endothelial cells (HUVEC); actives raise or lower the signal
The source made the active and inactive calls. The calls were made as follows: active = hit-call score of the fitted dose curve at least 0.9, where 1 is the maximum; inactive = score below 0.9.
Allowed answers: active, inactive

Use these answered entries as a reference point.
{"compound": "COc1cccc([C@H](O)C2CCN(CCc3ccc(F)cc3)CC2)c1OC", "cat": "inactive"}
{"compound": "CCCCCCCCCCCCO", "cat": "active"}
{"compound": "CCN(Cc1cccc(S(=O)(=O)O)c1)c1ccc(C(=C2C=CC(=[N+](CC)Cc3cccc(S(=O)(=O)O)c3)C=C2)c2ccccc2S(=O)(=O)[O-])cc1", "cat": "inactive"}
{"compound": "OC12N=C(c3ccccc3)SC1Cc1cc(Cl)ccc12 (centres undefined)", "cat": "inactive"}
{"compound": "Cc1cc(F)ccc1-c1cc(N2CC[C@@H](O)[C@H]2CO)ncc1N(C)C(=O)C(C)(C)c1cc(C(F)(F)F)cc(C(F)(F)F)c1", "cat": "active"}

Per the records of this test, what outcome belongs to COc1cc(C(=O)NC2CCN(C)CC2)ccc1Nc1ncc2c(n1)N(C1CCCC1)CC(F)(F)C(=O)N2C ?
inactive

Try the compound CC[C@H](NC(=O)c1cc(F)ccc1NS(=O)(=O)c1cccc2cccnc12)c1ccccc1
inactive

Try the compound CN1C(=O)N(c2ccccc2Br)Cc2cnc(Nc3ccc4c(c3)OCC(CO)O4)nc21 (centres undefined)
active

Try the compound Cc1ccc(C(C)C)cc1
inactive

---

# assay.procedure: CCTE_Shafer_MEA_acute_burst_percentage_mean: CCTE's Neural Acute Assay for Percentage of Spikes in a Burst, Shafer Lab (AID 2284017)
Calls of active or inactive are those of the source. The calls were made as follows: active = hit-call score of the fitted dose curve at least 0.9, where 1 is the maximum; inactive = score below 0.9.
Allowed answers: active, inactive

Use these answered entries as a reference point.
{"smi": "Clc1ccccc1C(c1ccccc1)(c1ccccc1)n1ccnc1", "cat": "active"}
{"smi": "Cc1c2ccccc2c(C)c2c1ccc1ccccc12", "cat": "active"}
{"smi": "CN(C[C@@H](CC[N+]12CCC(C3CCCCC3)(CC1)CC2)c1ccc(Cl)c(Cl)c1)C(=O)c1cc(C(F)(F)F)cc(C(F)(F)F)c1", "cat": "active"}
{"smi": "NCc1cccc(C2CCN(C(=O)c3ccc(C#Cc4ccccc4F)o3)CC2)c1", "cat": "active"}
{"smi": "CO[C@H]1/C=C/O[C@@]2(C)Oc3c(C)c(O)c4c(O)c(c(/C=N/N5CCN(C)CC5)c(O)c4c3C2=O)NC(=O)/C(C)=C\\C=C\\[C@H](C)[C@H](O)[C@@H](C)[C@@H](O)[C@@H](C)[C@H](OC(C)=O)[C@@H]1C", "cat": "inactive"}

With those in mind, consider the next compound.
Per the records of this test, what outcome belongs to CCCCOC(=O)c1ccc(O)cc1 ?
active

---

# Read-out: Fatty Acid-Binding Protein 1 (FABP1), FABP1 (gene 2168)
# assay.procedure: LTEA_HepaRG_FABP1: Life Technologies and Expression Analysis (LTEA) Assay for Fatty Acid-Binding Protein 1 (FABP1) using HepaRG (AID 2283494)
# run.conditions: mRNA level, 48 h; actives raise or lower the signal
Active and inactive are the calls of the source. The calls were made as follows: active = hit-call score of the fitted dose curve at least 0.9, where 1 is the maximum; inactive = score below 0.9.
Allowed answers: TRUE (active), FALSE (inactive)

Use these answered entries as a reference point.
{"compound": "O=C=NCCCCCCN=C=O", "cat": "FALSE"}
{"compound": "CCCCCc1ccc(N)cc1", "cat": "FALSE"}
{"compound": "CCN(CC)C(=O)c1cc(S(=O)(=O)Cc2ccccc2)c(N2CCC(c3ccccc3)CC2)cc1N(CC)CCN(C)C", "cat": "FALSE"}
{"compound": "CCCC(=O)OCCC(C)C", "cat": "FALSE"}
{"compound": "CCCOC(=O)c1cc(O)c(O)c(O)c1", "cat": "TRUE"}

Per the records of this test, what outcome belongs to COc1ccc2cc(S(=O)(=O)N[C@H](CC(=O)N[C@H](Cc3ccc(CN4[C@H](C)CCC[C@@H]4C)cc3)C(=O)N(C)C(C)C)c3ccc4c(c3)OCO4)ccc2c1 ?
TRUE

Try the compound Cc1cccc2ccccc12
FALSE
